# Measured on: GDP-bound KRAS wild-type protein (Homo sapiens)
# Sequence (P01116 1-188 isoform P01116-2): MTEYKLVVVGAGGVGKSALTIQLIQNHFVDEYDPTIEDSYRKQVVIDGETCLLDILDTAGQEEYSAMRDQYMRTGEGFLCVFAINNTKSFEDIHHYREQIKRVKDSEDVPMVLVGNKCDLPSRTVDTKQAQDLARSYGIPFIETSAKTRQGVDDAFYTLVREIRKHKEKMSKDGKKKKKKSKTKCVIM
# Assay method text: Binding to KRAS by surface plasmon resonance (SPR), dissociation constant KD
# Measurement conditions: Single Cycle Kinetics, 1:1 binding model
Quantity kind: Kd

Completed entries (count: 5):
CCO[C@@H]1C[C@H]2C(=O)NC3(CCC3)C(=O)N(C)[C@@H](C3CCCC3)C(=O)N(C)[C@H](C(=O)N3CCOCC3)CC(=O)N(C)[C@@H](Cc3ccc(C#N)cc3)C(=O)N[C@@H]([C@@H](C)CC)C(=O)N(C)CC(=O)N(C)[C@H]3CCCCCN(C3=O)[C@@H](Cc3ccc(F)cc3)C(=O)N(C)CC(=O)N[C@@H](CCc3cc(F)c(C(F)(F)F)c(F)c3)C(=O)N2C1 [PP1187]    0.12 nM
CCCCCC[C@H]1C(=O)N[C@@H]([C@@H](C)CC)C(=O)N(C)CC(=O)N(C)[C@H]2C/C=C\CCN(C2=O)[C@@H](Cc2ccc(C(F)(F)F)cc2)C(=O)N(C)CC(=O)N[C@@H](CCc2ccc(Cl)c(Cl)c2)C(=O)N2C[C@H](OCC)C[C@H]2C(=O)NC2(CCC2)C(=O)N(C)[C@@H](C(CC)CC)C(=O)N(C)[C@H](C(=O)N(C)C)CC(=O)N1C [PP1218]    0.88 nM
CCO[C@@H]1C[C@H]2C(=O)NC3(CCCC3)C(=O)N(C)[C@@H](C3CCCC3)C(=O)N(C)[C@H](C(=O)N(C)C)CC(=O)N(C)[C@@H](C)C(=O)N[C@@H]([C@@H](C)CC)C(=O)N(C)CC(=O)N(C)[C@H]3C/C=C\CCN(C3=O)[C@@H](CC3CCC(F)(F)CC3)C(=O)N(C)CC(=O)N[C@@H](CCc3cc(F)c(C(F)(F)F)c(F)c3)C(=O)N2C1 [PP1456]    0.12 nM
CC[C@H](C)[C@@H]1NC(=O)[C@H](CC2CC2)N(C)C(=O)C[C@@H](C)N(C)C(=O)[C@H](C2CCCC2)N(C)C(=O)C2(CCC2)NC(=O)[C@H](CC(F)F)N(C)C(=O)[C@H](CCc2cc(F)c(C(F)(F)F)c(F)c2)NC(=O)CN(C)C(=O)[C@H](Cc2ccc(C(F)(F)F)cc2)N2CC/C=C\C[C@@H](C2=O)N(C)C(=O)CN(C)C1=O [PP1405]    8.5 nM
CCCN(C)C(=O)[C@@H]1CC(=O)N(C)[C@@H](COCC)C(=O)N[C@@H]([C@@H](C)CC)C(=O)N(C)CC(=O)N(C)[C@H]2C/C=C\CCN(C2=O)[C@@H](Cc2ccc(C(F)(F)F)cc2)C(=O)N(C)CC(=O)N[C@@H](CCc2ccc(C(F)(F)F)c(OC)c2)C(=O)N2C[C@@H](C)C[C@H]2C(=O)NC2(CCC2)C(=O)N(C)[C@@H](C2CCCC2)C(=O)N1C [PP2025]    0.061 nM

Check GDP-bound KRAS wild-type protein (Homo sapiens) data and give Kd for CCO[C@@H]1C[C@H]2C(=O)NC3(CC(C)(C)C3)C(=O)N(C)[C@@H](C(CC)CC)C(=O)N(C)[C@H](C(=O)N(C)C)CC(=O)N(C)[C@@H](CC(C)C)C(=O)N[C@@H]([C@@H](C)CC)C(=O)N(C)CC(=O)N(C)[C@H]3C/C=C\CCN(C3=O)[C@@H](Cc3ccc(C)cc3)C(=O)N(C)CC(=O)N[C@@H](CCc3cc(F)c(C(F)(F)F)c(F)c3)C(=O)N2C1 [PP2141] . 0.17 nM

Check GDP-bound KRAS wild-type protein (Homo sapiens) data and give Kd for CCO[C@@H]1C[C@H]2C(=O)NC3(CCC3)C(=O)N(C)[C@@H](C3CCCC3)C(=O)N(C)[C@H](C(=O)N(C)C)CC(=O)N(C)[C@@H](Cc3ccc(Cl)c(Cl)c3)C(=O)N[C@@H]([C@@H](C)CC)C(=O)N(C)CC(=O)N(C)[C@H]3CCCCCN(C3=O)[C@@H](Cc3ccc(C(F)(F)F)cc3)C(=O)N(C)CC(=O)N[C@@H](CCc3cc(F)c(C(F)(F)F)c(F)c3)C(=O)N2C1 [PP1174] . 1 nM

Check GDP-bound KRAS wild-type protein (Homo sapiens) data and give Kd for CCO[C@@H]1C[C@H]2C(=O)NC3(CCC3)C(=O)N(C)[C@@H](C(CC)CC)C(=O)N(C)[C@H](C(=O)N(C)C)CC(=O)N(C)[C@@H](CC(C)C)C(=O)N[C@@H]([C@@H](C)CC)C(=O)N(C)CC(=O)N(C)[C@H]3C/C=C\CCN(C3=O)[C@@H](Cc3ccc(C(F)(F)F)cc3)C(=O)N(C)CC(=O)N[C@@H](CCc3cc(F)c(C(F)(F)F)c(F)c3)C(=O)N2C1 [PP1201] . 0.17 nM

Check GDP-bound KRAS wild-type protein (Homo sapiens) data and give Kd for CCC[C@H]1C(=O)N[C@@H]([C@@H](C)CC)C(=O)N(C2CC2)CC(=O)N(C)[C@H]2C/C=C\CCN(C2=O)[C@@H](CC2CCCCC2)C(=O)N(C)CC(=O)N[C@@H](CCc2ccc(C(F)(F)F)c(OC)c2)C(=O)N2C[C@H](OCC)C[C@H]2C(=O)N(C)C2(CCC2)C(=O)N(C)[C@@H](C(CC)CC)C(=O)N(C)[C@H](C(=O)N(C)C)CC(=O)N1C [PP2337] . 32 nM

Check GDP-bound KRAS wild-type protein (Homo sapiens) data and give Kd for CCO[C@@H]1C[C@H]2C(=O)NC3(CCC3)C(=O)N(C)[C@@H](C3CCCC3)C(=O)N(C)[C@H](C(=O)N(C)C)CC(=O)N(C)[C@@H](Cc3ccccc3C#N)C(=O)N[C@@H]([C@@H](C)CC)C(=O)N(C)CC(=O)N(C)[C@H]3CCCCCN(C3=O)[C@@H](Cc3ccc(F)cc3)C(=O)N(C)CC(=O)N[C@@H](CCc3cc(F)c(C(F)(F)F)c(F)c3)C(=O)N2C1 [PP1155] . 0.15 nM

Check GDP-bound KRAS wild-type protein (Homo sapiens) data and give Kd for CC[C@H](C)[C@@H]1NC(=O)[C@H](C2CCC2)N(C)C(=O)C[C@@H](C(=O)N(C)CC)N(C)C(=O)[C@H](C2CCCC2)N(C)C(=O)C2(CCC2)NC(=O)[C@@H]2C[C@H](C)CN2C(=O)[C@H](CCc2cc(F)c(C(F)(F)F)c(F)c2)NC(=O)CN(C)C(=O)[C@H](Cc2ccc(C(F)(F)F)cc2)N2CC/C=C\C[C@@H](C2=O)N(C)C(=O)CN(C)C1=O [PP2082] . 0.11 nM

###

# Measured on: GDP-bound KRAS wild-type protein (Homo sapiens)
# Assay method text: Binding to KRAS by surface plasmon resonance (SPR), dissociation constant KD
# Measurement conditions: 1:1 binding model
Quantity kind: pKd
In plain terms, pKd is the concentration in mol/L turned into minus its base-10 logarithm.

Completed entries (count: 2):
CCC[C@H]1C(=O)N[C@@H]([C@@H](C)CC)C(=O)N(C2CC2)CC(=O)N(C)[C@H]2C/C=C\CCN(C2=O)[C@@H](Cc2ccc(C)cc2)C(=O)N(C)CC(=O)N[C@@H](CCc2ccc(Cl)c(Cl)c2)C(=O)N2C[C@H](OC(C)C)C[C@H]2C(=O)NC2(CC(C)(C)C2)C(=O)N(C)[C@@H](C2CCCC2)C(=O)N(C)[C@H](C(=O)N(C)C)CC(=O)N1C    9.00
CCC[C@H]1C(=O)N[C@@H](C2CCCCC2)C(=O)N(C)CC(=O)N(C)[C@H]2C/C=C\CCN(C2=O)[C@@H](Cc2ccc(C)cc2)C(=O)N(C)CC(=O)N[C@@H](CCc2ccc(C(F)(F)F)c(Cl)c2)C(=O)N2C[C@H](OCC)C[C@H]2C(=O)NC2(CC(C)(C)C2)C(=O)N(C)[C@@H](CC(C)(C)C)C(=O)N(C)[C@H](C(=O)N(C)C)CC(=O)N1C    9.49

Could you please provide reported pKd for CCO[C@@H]1C[C@H]2C(=O)NC3(CC(C)(C)C3)C(=O)N(C)[C@@H](C3CCCC3)C(=O)N(C)[C@H](C(=O)N(C)CC)CC(=O)N(C)[C@@H](CC(C)C)C(=O)N[C@@H]([C@@H](C)CC)C(=O)N(C)CC(=O)N(C)[C@H]3C/C=C\CCN(C3=O)[C@@H](Cc3ccc(C(F)F)cc3)C(=O)N(C)CC(=O)N[C@@H](CCc3cc(C)c(C(F)F)c(C)c3)C(=O)N2C1 ? Thanks! 8.37

###

# Measured on: GDP-bound KRAS wild-type protein (Homo sapiens)
# Assay method text: Binding to KRAS by surface plasmon resonance (SPR), dissociation constant KD
# Measurement conditions: Single Cycle Kinetics, 1:1 binding model
The entries below are paired with their reported pKd.
In plain terms, pKd is the concentration in mol/L turned into minus its base-10 logarithm.

Completed entries (count: 2):
CCO[C@@H]1C[C@H]2C(=O)NC3(CCCC3)C(=O)N(C)[C@@H](C3CCCC3)C(=O)N(C)[C@H](C(=O)N(C)C)CC(=O)N(C)[C@@H](CC)C(=O)N[C@@H]([C@@H](C)CC)C(=O)N(C)CC(=O)N(C)[C@H]3C[C@@H](C)[C@@H](C)CN(C3=O)[C@@H](Cc3ccc(C(F)(F)F)cc3)C(=O)N(C)CC(=O)N[C@@H](CCc3cc(F)c(C(F)(F)F)c(F)c3)C(=O)N2C1    10.62
CCO[C@@H]1C[C@H]2C(=O)NC3(CC(C)(C)C3)C(=O)N(C)[C@@H](C(CC)CC)C(=O)N(C)[C@H](C(=O)N(C)C)CC(=O)N(C)[C@@H](CC3CC3)C(=O)N[C@@H]([C@@H](C)CC)C(=O)N(C)CC(=O)N(C)[C@H]3C/C=C\CCN(C3=O)[C@@H](Cc3ccc(C)cc3)C(=O)N(C)CC(=O)N[C@@H](CCc3ccc(C(F)(F)F)c(Cl)c3)C(=O)N2C1    9.52

Could you please provide reported pKd for CCO[C@@H]1C[C@H]2C(=O)NC3(CCC3)C(=O)N(C)[C@@H](C3CCCC3)C(=O)N(C)[C@H](C(=O)N3CCC3)CC(=O)N(C)[C@@H](CC)C(=O)N[C@@H]([C@@H](C)CC)C(=O)N(C)CC(=O)N(C)[C@H]3C/C=C\CCN(C3=O)[C@@H](CC3CCC(F)(F)CC3)C(=O)N(C)CC(=O)N[C@@H](CCc3cc(F)c(C(F)(F)F)c(F)c3)C(=O)N2C1 ? Thanks! 9.72
